Source listed as patent US20100069345A1.

system: cisplatin-resistant variant (CNE2) of human nasopharyngeal carcinoma cells; experiment: MTT cell viability assay, CNE2; assay type: cell-based; conditions: MTT, 37° C., 48 h; mean ± SD
measurement label: IC50 (µM)
Give bare numbers, in µM.

// query # query: IC50 | item N.N.[Cl][Pt][Cl] [Cisplatin, cis-diamminedichloroplatinum[II], reference compound] | system: cisplatin-resistant variant (CNE2) of human nasopharyngeal carcinoma cells
// result 57.6

###

tested on: normal human lung fibroblast cells (CCD-19Lu); assay: MTT cell viability assay, CCD-19Lu; assay type: cell-based; conditions: MTT, 37° C., 48 h; mean ± SD
Field: IC50. Provide a value for each of the compounds that follow.
Numbers only, in µM.

>  <compound>
C1=Cc2nc1c(-c1ccccc1)c1ccc([n-]1)c(-c1ccccc1)c1nc(c(-c3ccccc3)c3ccc([n-]3)c2-c2ccccc2)C=C1.CC(=O)C=C(C)[O-].[Yb+3]

>  <measure unit>
µM

>  <IC50>
25.1

$$$$

Now turn to the next compound.
// query Which value of IC50 has been reported for N.N.[Cl][Pt][Cl] [Cisplatin, cis-diamminedichloroplatinum[II], reference compound] in the records?
// result 90.6
